# EXPERIMENTAL_TARGET: MLP2
# CONDITION_PARAMETERS: read-out: Kd (ANS-protein, apparent); ANS 10 µM fixed, protein 0 to 100 µM; CBS pH 5.5; one-site hyperbolic model
ASSAY_METRIC: pKd
Lab note — pKd values are minus log10 of concentrations in M.

Ask | Data request, read-out pKd, for `O=S(=O)(O)c1cccc2cccc(Nc3ccccc3)c12`
Reply | 4.54

----------
# EXPERIMENTAL_TARGET: THS2 (Papaver somniferum, UniProt A0A2U9GGW3)
# Sequence (A0A2U9GGW3 whole entry): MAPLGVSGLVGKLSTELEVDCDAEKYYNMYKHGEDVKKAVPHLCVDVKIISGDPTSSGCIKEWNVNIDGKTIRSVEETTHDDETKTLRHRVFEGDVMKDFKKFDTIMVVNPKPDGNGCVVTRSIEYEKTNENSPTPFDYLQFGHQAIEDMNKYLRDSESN
ASSAY_METRIC: IC50 (µM)
Hi! Could you send only the number? It should be in µM, unit omitted.

Ask | Param readout= IC50; system= THS2 (Papaver somniferum, UniProt A0A2U9GGW3); entry= `COc1ccc(Cc2nccc3cc(OC)c(OC)cc23)cc1OC` ; returns value.
Reply | 493

----------
# Tested on: PR10-12
# EXPERIMENT_DESCRIPTION: ANS displacement assay
# Format: binding, Papaver somniferum
# CONDITION_PARAMETERS: 10 µM protein and 10 µM ANS, CBS pH 5.5
Measured Log10IC50 values are reported for all entries that follow.
Write the number on its own, no unit after it.

Some solved cases for reference:
COC1=CC=C2[C@H]3Cc4ccc(OC)c5c4[C@@]2(CCN3C)[C@H]1O5    2.65
COc1ccc2c3c1O[C@H]1[C@@H](O)C=C[C@H]4[C@@H](C2)N(C)CC[C@@]341    3.18

Then there is this compound:
Ask | Suppose we examine the compound `COc1ccc(Cc2nccc3cc(OC)c(OC)cc23)cc1OC` ; what Log10IC50 value has been reported?
Reply | 2.20

----------
# EXPERIMENTAL_TARGET: PR10-12
# EXPERIMENT_DESCRIPTION: ANS displacement assay
# CONDITION_PARAMETERS: 10 µM protein and 10 µM ANS, CBS pH 5.5
ASSAY_METRIC: IC50 (µM)
Report the figure in µM without appending any unit label.

COc1ccc2c3c1O[C@H]1[C@@H](O)C=C[C@H]4[C@@H](C2)N(C)CC[C@@]341 [Codeine, codeine]    1500
COc1ccc(Cc2nccc3cc(OC)c(OC)cc23)cc1OC [Papaverine, papaverine]    158

Ask | Record request: IC50 value, item COC1=CC=C2[C@H]3Cc4ccc(OC)c5c4[C@@]2(CCN3C)[C@H]1O5 [Thebaine, thebaine]
Reply | 445

----------
Recorded Hill Slope, one value per entry.
# EXPERIMENTAL_TARGET: NISO (Papaver somniferum, UniProt P0DYP9)
# Sequence (P0DYP9 entry or part of it): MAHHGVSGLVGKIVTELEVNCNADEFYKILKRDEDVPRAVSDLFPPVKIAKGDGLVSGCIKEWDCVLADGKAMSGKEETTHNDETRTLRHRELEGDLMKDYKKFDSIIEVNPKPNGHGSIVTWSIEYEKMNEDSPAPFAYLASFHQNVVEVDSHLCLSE
# EXPERIMENT_DESCRIPTION: ANS displacement assay
# CONDITION_PARAMETERS: NISO; ANS displacement dose-response fit

COc1ccc(Cc2nccc3cc(OC)c(OC)cc23)cc1OC    -1.20 ± 0.05
COc1ccc2c3c1O[C@H]1[C@@H](O)C=C[C@H]4[C@@H](C2)N(C)CC[C@@]341    -0.72 ± 0.13
COC1=CC=C2[C@H]3Cc4ccc(OC)c5c4[C@@]2(CCN3C)[C@H]1O5    0.92 ± 0.16

Consider the additional compound presented here.
Ask | So what's the measured Hill Slope for this one? `COc1ccc2c(c1OC)C(=O)O[C@@H]2[C@H]1c2c(cc3c(c2OC)OCO3)CCN1C`
Reply | -5.05 ± 6.55

Sourced from paper PMC9646721
